system-under-test: cIAP1-BIR2 (Homo sapiens (Human), UniProt Q13490)
Sequence (Q13490 173-257): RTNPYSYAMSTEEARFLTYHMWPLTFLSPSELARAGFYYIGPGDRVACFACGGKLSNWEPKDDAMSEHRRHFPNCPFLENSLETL
procedure-text: BIR binding assay (FRET competition), cIAP1 BIR2
pIC50: −log10 of the molar value.
Some compounds, each annotated with its measured pIC50.
measurement-type: pIC50

{"smi": "C[C@@H]1CN(CC(=O)N2CC(C)(C)c3[nH]c(=O)c(Cc4ccc(F)cc4)cc32)[C@@H](CN2CCO[C@@H](COCCCCOC[C@H]3CN(C[C@H]4CN[C@H](C)CN4CC(=O)N4CC(C)(C)c5[nH]c(=O)c(Cc6ccc(F)cc6)cc54)CCO3)C2)CN1", "reported-value": "5.00 to 5.50"}
{"smi": "C[C@@H]1CN(CC(=O)N2CC(C)(C)c3[nH]c(=O)c(Cc4ccc(F)cc4)cc32)[C@@H](CN2CCO[C@H](C(=O)NCC(C)(C)CNC(=O)[C@@H]3CN(C[C@H]4CN[C@H](C)CN4CC(=O)N4CC(C)(C)c5[nH]c(=O)c(Cc6ccc(F)cc6)cc54)CCO3)C2)CN1", "reported-value": "5.50 to 6.00"}
{"smi": "C[C@@H]1CN(CC(=O)N2CC(C)(C)c3[nH]c(=O)c(Cc4ccc(F)cc4)cc32)[C@@H](CN2CCO[C@H](COCC#CC#CCOC[C@@H]3CN(C[C@H]4CN[C@H](C)CN4CC(=O)N4CC(C)(C)c5[nH]c(=O)c(Cc6ccc(F)cc6)cc54)CCO3)C2)CN1", "reported-value": "5.50 to 6.00"}
{"smi": "C[C@@H]1CN(CC(=O)N2CC(C)(C)c3[nH]c(=O)c(Oc4ccc(Br)cc4)cc32)[C@@H](CN2CCO[C@H](C(=O)NCc3ccc(CNC(=O)[C@@H]4CN(C[C@H]5CN[C@H](C)CN5CC(=O)N5CC(C)(C)c6[nH]c(=O)c(Oc7ccc(Br)cc7)cc65)CCO4)cc3)C2)CN1", "reported-value": "5.50 to 6.00"}

====

system-under-test: XIAP-BIR3 (Homo sapiens (Human), UniProt P98170)
Sequence (P98170 241-356): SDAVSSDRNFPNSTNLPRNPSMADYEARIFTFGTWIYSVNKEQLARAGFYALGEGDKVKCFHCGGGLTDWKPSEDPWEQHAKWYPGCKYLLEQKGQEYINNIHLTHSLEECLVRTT
procedure-text: BIR binding assay (FRET competition), XIAP BIR3
pIC50: −log10 of the molar value.

{"compound": "C[C@@H]1CN(CC(=O)N2CC(C)(C)c3ncc(Nc4ccc(F)cc4)cc32)[C@@H](CN2CCO[C@H](COc3cccc(OC[C@@H]4CN(C[C@H]5CN[C@H](C)CN5CC(=O)N5CC(C)(C)c6ncc(Nc7ccc(F)cc7)cc65)CCO4)c3)C2)CN1 [Compound 143]", "pIC50": "6.30 to 7.50"}
{"compound": "C[C@@H]1CN(CC(=O)N2CC(C)(C)c3[nH]c(=O)c(Cc4ccc(F)cc4)cc32)[C@@H](CN2CCC(CCNC(=O)c3ccc(C(=O)NCCC4CCN(C[C@H]5CN[C@H](C)CN5CC(=O)N5CC(C)(C)c6[nH]c(=O)c(Cc7ccc(F)cc7)cc65)CC4)cc3)CC2)CN1 [Example 103]", "pIC50": "7.80 to 8.10"}
{"compound": "COc1cc(Cl)ccc1Cc1cc2c([nH]c1=O)C(C)(C)CN2C(=O)CN1C[C@@H](C)NC[C@@H]1CN1CCO[C@H](C(=O)NCc2ccc(CNC(=O)[C@@H]3CN(C[C@H]4CN[C@H](C)CN4CC(=O)N4CC(C)(C)c5[nH]c(=O)c(Cc6ccc(Cl)cc6OC)cc54)CCO3)cc2)C1 [Compound 169]", "pIC50": "6.30 to 7.50"}
{"compound": "C[C@@H]1CN(CC(=O)N2CC(C)(C)c3[nH]c(=O)c(Cc4ccc(F)cc4)cc32)[C@@H](CN2CCO[C@H](C(=O)NCC(C)(C)CNC(=O)[C@@H]3CN(C[C@H]4CN[C@H](C)CN4CC(=O)N4CC(C)(C)c5[nH]c(=O)c(Cc6ccc(F)cc6)cc54)CCO3)C2)CN1 [Compound 139]", "pIC50": "6.30 to 7.50"}
{"compound": "C[C@@H]1CN(CC(=O)N2CC(C)(C)c3[nH]c(=O)c(Cc4ccc(F)cc4)cc32)[C@@H](CN2CCO[C@H](COc3cccc(OC[C@@H]4CN(C[C@H]5CN[C@H](C)CN5CC(=O)N5CC(C)(C)c6[nH]c(=O)c(Cc7ccc(F)cc7)cc65)CCO4)c3Cl)C2)CN1 [Example 88]", "pIC50": "7.80 to 8.10"}
{"compound": "C[C@@H]1CN(CC(=O)N2CC(C)(C)c3[nH]c(=O)c(Cc4ccc(F)cc4)cc32)[C@@H](CN2CCN(C(=O)/C=C/c3ccc(/C=C/C(=O)N4CCN(C[C@H]5CN[C@H](C)CN5CC(=O)N5CC(C)(C)c6[nH]c(=O)c(Cc7ccc(F)cc7)cc65)[C@H](C)C4)cc3)C[C@H]2C)CN1 [Example 14]", "pIC50": "7.50 to 7.80"}
{"compound": "C[C@@H]1CN(CC(=O)N2CC(C)(C)c3[nH]c(=O)c(Cc4ccc(F)cc4F)cc32)[C@@H](CN2CCO[C@H](C(=O)NCc3ccc(CNC(=O)[C@@H]4CN(C[C@H]5CN[C@H](C)CN5CC(=O)N5CC(C)(C)c6[nH]c(=O)c(Cc7ccc(F)cc7F)cc65)CCO4)cc3)C2)CN1 [Compound 177]", "pIC50": "6.30 to 7.50"}

====

system-under-test: cIAP1-BIR2 (Homo sapiens (Human), UniProt Q13490)
procedure-text: BIR binding assay (FRET competition), cIAP1 BIR2
Procedure: The BIR domain binding assays are FRET based competition assays that utilize His-tagged versions of each of the BIR2 and BIR3 domains from cIAP1, cIAP2, and XIAP (each domain assayed separately) each at a custom optimal concentration and a probe, 200 nM SMAC/DIABLO peptide […] labelled with AlexaFluor647 (part #crb 1110326h, Discovery Peptides). The assay is conducted in 50 mM HEPES, […], 1 mM CHAPS, 5% Glycerol, 1 mM DTT, in dI water with a final pH of 7.4 and final volume of 20 uL. […]
pIC50: −log10 of the molar value.

{"smi": "CC(C)c1ccccc1Cc1cc2c([nH]c1=O)C(C)(C)CN2C(=O)CN1C[C@@H](C)NC[C@@H]1CN1CCO[C@H](C(=O)NCc2ccc(CNC(=O)[C@@H]3CN(C[C@H]4CN[C@H](C)CN4CC(=O)N4CC(C)(C)c5[nH]c(=O)c(Cc6ccccc6C(C)C)cc54)CCO3)cc2)C1", "system-under-test": "cIAP1-BIR2 (Homo sapiens (Human), UniProt Q13490)", "pIC50": "4.29 to 5.00"}
{"smi": "C[C@@H]1CN(CC(=O)N2CC(C)(C)c3[nH]c(=O)c(Cc4ccc(Cl)cc4O)cc32)[C@@H](CN2CCO[C@H](C(=O)NCc3ccc(CNC(=O)[C@@H]4CN(C[C@H]5CN[C@H](C)CN5CC(=O)N5CC(C)(C)c6[nH]c(=O)c(Cc7ccc(Cl)cc7O)cc65)CCO4)cc3)C2)CN1", "system-under-test": "cIAP1-BIR2 (Homo sapiens (Human), UniProt Q13490)", "pIC50": "6.00 to 7.65"}

====

Parameter IC50: see the listing below.
system-under-test: XIAP-BIR2 (Homo sapiens (Human), UniProt P98170)
Sequence (P98170 124-240): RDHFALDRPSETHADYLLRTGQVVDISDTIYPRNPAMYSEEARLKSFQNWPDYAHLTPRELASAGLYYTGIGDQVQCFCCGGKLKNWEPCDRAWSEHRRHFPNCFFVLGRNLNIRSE
procedure-text: BIR binding assay (FRET competition), XIAP BIR2
assay-setup: FRET competition binding; read-out: XIAP BIR2 (pIC50) (converted)

{"smi": "C[C@@H]1CN(CC(=O)N2CC(C)(C)c3[nH]c(=O)c(Cc4ccc(F)cc4)cc32)[C@@H](CN2CCN(C(=O)c3cccnc3-c3ncccc3C(=O)N3CCN(C[C@H]4CN[C@H](C)CN4CC(=O)N4CC(C)(C)c5[nH]c(=O)c(Cc6ccc(F)cc6)cc54)[C@H](C)C3)C[C@H]2C)CN1", "IC50": "10 to 51.3 µM"}
{"smi": "C[C@@H]1CN(CC(=O)N2CC(C)(C)c3[nH]c(=O)c(Cc4ccc(F)cc4)cc32)[C@@H](CN2CCO[C@H](COc3ccc(C#N)c(OC[C@@H]4CN(C[C@H]5CN[C@H](C)CN5CC(=O)N5CC(C)(C)c6[nH]c(=O)c(Cc7ccc(F)cc7)cc65)CCO4)c3)C2)CN1", "IC50": "10 to 51.3 µM"}

====

system-under-test: cIAP2-BIR3 (Homo sapiens (Human))
Sequence (Q13489 238-349): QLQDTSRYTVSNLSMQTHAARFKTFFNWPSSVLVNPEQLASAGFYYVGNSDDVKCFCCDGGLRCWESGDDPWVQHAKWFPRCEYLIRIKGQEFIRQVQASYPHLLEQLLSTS
procedure-text: BIR binding assay (FRET competition), cIAP2 BIR3
assay-setup: fold separation (FS) for cIAP2

{"smi": "C[C@@H]1CN(CC(=O)N2CC(C)(C)c3[nH]c(=O)c(Cc4ccc(F)cc4)cc32)[C@@H](CN2CCO[C@H](C(=O)N(C)CCCCCCN(C)C(=O)[C@@H]3CN(C[C@H]4CN[C@H](C)CN4CC(=O)N4CC(C)(C)c5[nH]c(=O)c(Cc6ccc(F)cc6)cc54)CCO3)C2)CN1", "cIAP2 BIR3 vs BIR2 separation window": "+++ (10,000>FS>1,000)"}
{"smi": "C[C@@H]1CN(CC(=O)N2CC(C)(C)c3[nH]c(=O)c(Cc4ccc(F)cc4)cc32)[C@@H](CN2CCO[C@H](COc3ccc(Cl)c(OC[C@@H]4CN(C[C@H]5CN[C@H](C)CN5CC(=O)N5CC(C)(C)c6[nH]c(=O)c(Cc7ccc(F)cc7)cc65)CCO4)c3)C2)CN1", "cIAP2 BIR3 vs BIR2 separation window": "+++ (10,000>FS>1,000)"}
{"smi": "C[C@@H]1CN(CC(=O)N2CC(C)(C)c3[nH]c(=O)c(Cc4ccc(F)cc4F)cc32)[C@@H](CN2CCO[C@H](C(=O)NCc3ccc(CNC(=O)[C@@H]4CN(C[C@H]5CN[C@H](C)CN5CC(=O)N5CC(C)(C)c6[nH]c(=O)c(Cc7ccc(F)cc7F)cc65)CCO4)cc3)C2)CN1", "cIAP2 BIR3 vs BIR2 separation window": "+++ (10,000>FS>1,000)"}
{"smi": "C[C@@H]1CN(CC(=O)N2CC(C)(C)c3[nH]c(=O)c(Cc4ccc(F)cc4)cc32)[C@@H](CN2CCO[C@H](COc3ccccc3OC[C@@H]3CN(C[C@H]4CN[C@H](C)CN4CC(=O)N4CC(C)(C)c5[nH]c(=O)c(Cc6ccc(F)cc6)cc54)CCO3)C2)CN1", "cIAP2 BIR3 vs BIR2 separation window": "+++ (10,000>FS>1,000)"}
{"smi": "C[C@@H]1CN(CC(=O)N2CC(C)(C)c3[nH]c(=O)c(Cc4ccc(F)cc4)cc32)[C@@H](CN2CCO[C@H](C(=O)NCCCC(=O)N3CCN(C[C@H]4CN[C@H](C)CN4CC(=O)N4CC(C)(C)c5[nH]c(=O)c(Cc6ccc(F)cc6)cc54)[C@H](C)C3)C2)CN1", "cIAP2 BIR3 vs BIR2 separation window": "+++ (10,000>FS>1,000)"}
{"smi": "C[C@@H]1CN(CC(=O)N2CC(C)(C)c3[nH]c(=O)c(Cc4ccc(F)cc4)cc32)[C@@H](CN2CCO[C@H](C(=O)NCC(O)CNC(=O)[C@@H]3CN(C[C@H]4CN[C@H](C)CN4CC(=O)N4CC(C)(C)c5[nH]c(=O)c(Cc6ccc(F)cc6)cc54)CCO3)C2)CN1", "cIAP2 BIR3 vs BIR2 separation window": "+++ (10,000>FS>1,000)"}
